# credit: patent US8952024B2

tested on: bermudagrass (Cynodon dactylon); assay: Test B pre-/postemergence plant response; assay type: in vivo; conditions: 31 g ai/ha, postemergence; scale 0 to 100, 0 is no effect, 100 is complete control
Observation type: Plant response rating, Bermudagrass

1) CCCn1c(-c2ccccc2)ncc(C(=O)C2=C(O)CCCC2=O)c1=O | 90

Below is a list of molecules. For each, state its recorded Plant response rating, Bermudagrass.
1. Cc1ccc(Cl)cc1-n1c(-c2ccccc2)ncc(C(=O)C2=C(O)CCCC2=O)c1=O
2. CCCn1c(-c2ccsc2)ncc(C(=O)C2=C(O)CCCC2=O)c1=O
3. COCCn1c(-c2ccco2)ncc(C(=O)C2=C(O)CCCC2=O)c1=O

[reply]
1. 85
2. 60
3. 95

Take each entry in turn and give its Plant response rating, Bermudagrass.
1. O=C1CCCC(O)=C1C(=O)c1cnc(C2CC2)n(-c2ccccc2)c1=O
2. O=C1CCCC(O)=C1C(=O)c1cnc(-c2ccccc2)n(C2CC2)c1=O

[reply]
1. 90
2. 70
